Cited source for all entries: patent US6881728B1

# Target Desc: human androgen receptor (Homo sapiens)
# Construct: host or cells: MCF-7 cytosol (endogenous) or CHO cells transfected with hAR
# Sequence (P10275 1-920): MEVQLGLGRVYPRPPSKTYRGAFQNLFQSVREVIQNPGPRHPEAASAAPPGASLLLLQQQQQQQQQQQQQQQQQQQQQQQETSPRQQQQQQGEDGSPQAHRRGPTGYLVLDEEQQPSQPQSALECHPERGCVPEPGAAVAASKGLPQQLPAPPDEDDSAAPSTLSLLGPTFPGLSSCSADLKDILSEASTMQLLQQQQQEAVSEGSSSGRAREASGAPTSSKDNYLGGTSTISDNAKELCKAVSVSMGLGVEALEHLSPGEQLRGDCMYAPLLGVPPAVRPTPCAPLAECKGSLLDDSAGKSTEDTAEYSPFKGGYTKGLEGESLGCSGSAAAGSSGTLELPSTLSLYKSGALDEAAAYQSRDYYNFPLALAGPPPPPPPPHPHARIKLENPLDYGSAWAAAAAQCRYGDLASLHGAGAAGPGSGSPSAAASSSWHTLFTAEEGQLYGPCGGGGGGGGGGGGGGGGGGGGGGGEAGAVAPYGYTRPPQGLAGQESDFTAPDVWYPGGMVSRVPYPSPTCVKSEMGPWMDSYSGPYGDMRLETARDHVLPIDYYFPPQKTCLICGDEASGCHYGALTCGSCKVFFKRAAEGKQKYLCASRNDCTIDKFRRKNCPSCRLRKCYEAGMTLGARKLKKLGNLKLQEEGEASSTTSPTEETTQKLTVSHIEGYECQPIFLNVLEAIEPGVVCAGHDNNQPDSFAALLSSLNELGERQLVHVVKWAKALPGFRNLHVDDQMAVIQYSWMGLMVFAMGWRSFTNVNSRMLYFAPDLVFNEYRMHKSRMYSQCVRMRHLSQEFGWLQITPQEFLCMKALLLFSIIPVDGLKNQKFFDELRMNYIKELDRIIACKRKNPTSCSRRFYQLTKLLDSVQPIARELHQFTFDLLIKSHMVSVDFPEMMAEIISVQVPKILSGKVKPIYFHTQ
# Test Summary: androgenic activity rating (procedures described above; which one underlies the rating is not stated)
# Design: key: +: androgenic activity found; ++: high androgenic activity; +++: excellent androgenic activity
Reported Metric: Rating (androgenic activity)

C=CC(O)[C@@H]1CC[C@@H]2[C@H]3[C@H](CC[C@@]21C)[C@H]1CCC(=O)C=C1C[C@H]3C (stereo partly drawn) [Example 18a]	+
CC1CC2=CC(=O)CCC2C2CCC3(C)C(CCC3C(C)(C)O)C12 (stereo not drawn)	+
C[C@]12CC[C@H]3[C@@H](CCC4=CC(=O)CC[C@@H]43)[C@H]1CC[C@H]2CO	+++

* * *

# Target Desc: human androgen receptor (Homo sapiens, UniProt P10275)
# Construct: host or cells: MCF-7 cytosol (endogenous) or CHO cells transfected with hAR
# Test Summary: androgenic activity rating (procedures described above; which one underlies the rating is not stated)
# Set-up: key: +: androgenic activity found; ++: high androgenic activity; +++: excellent androgenic activity
Reported Metric: Rating (androgenic activity)

C=C[C@@H]1CC2=CC(=O)CC[C@@H]2[C@H]2CC[C@]3(C)[C@H](CO)CC[C@@H]3[C@@H]21 [Example 15]	++
CC(=O)OC[C@@H]1CC[C@@H]2[C@H]3[C@H](CC[C@]12C)[C@H]1CCC(=O)C=C1C[C@H]3C [Example 33a]	+
C[C@]12CC[C@@H]3C4=C(CC[C@H]3[C@H]1CC[C@H]2CO)CC(=O)CC4 [Example 2]	++
C=CC[C@@H](O)[C@@H]1CC[C@@H]2[C@H]3[C@H](CC[C@@]21C)[C@H]1CCC(=O)C=C1C[C@H]3C [Example 18h]	+
CC(O)C1CCC2C3CCC4=CC(=O)CCC4C3CCC12C (stereo not shown) [Example 24b]	+
C[C@@H]1CC2=CC(=O)CC[C@@H]2[C@H]2CC[C@@]3(C)[C@H](C[C@@H](C)[C@H]3CO)[C@@H]21 [Example 8]	+
C[C@@H]1CC2=CC(=O)CC[C@@H]2[C@H]2CC[C@]3(C)[C@H](CO)C[C@@H](C)[C@@H]3[C@@H]21 [Example 7]	+
